Hey, just so you know, these numbers are from PubChem BioAssay.

Examples of compounds with documented composite z-score follow.
Test system: Plasmodium falciparum Sir2 (PF13_0152, Sir2A)
Assay Notes: pfSir2 binders on small-molecule microarrays, primary screen, biochemical, small-molecule microarray, 635 nm fluorescence (AID 1098);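 also: score merges spot fluorescence intensity with its signal-to-noise ratio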
Experimental Conditions: small-molecule microarray binding, fluorescence 635 nm; higher = more signal

COCCOC(=O)N1C(=O)[C@@]2(c3cc(C#CC4=CCCCC4)ccc31)[C@H](C(N)=O)[C@H]1C(=O)O[C@H](c3ccccc3)[C@H](c3ccccc3)N1[C@@H]2c1ccccc1OCCO :: 1.46
C=C(/C(=C/C[C@@H](OC(C)=O)c1cccc(OCCO)c1)c1cc(C(=O)OC)ccc1OC)C(C)C :: 0.628
C[C@@H]1ON(c2ccc(C(=O)OC(C)(C)C)cc2)[C@H](c2ccc(O)cc2)[C@H]1C(=O)N1C(=O)OC[C@H]1Cc1ccccc1 :: 0.632

Let us move to another entry and its composite z-score.
Value lookup for composite z-score; key = CCCCCCc1nc(-c2cc(C)c(OC)c(C)c2)c(C)c2c1[Si](C(C)C)(C(C)C)OC2
-0.17
